We begin with a simple list: items and their reported signal/noise ratio.
Molecular target: T1, recombinant Ovr110-hFc encoded by Ovr110 Construct 2 (human)
T1 construct: Captured on plates by goat anti-human IgG Fc; also called Ovr110-hFc (with TM)
T1 chain: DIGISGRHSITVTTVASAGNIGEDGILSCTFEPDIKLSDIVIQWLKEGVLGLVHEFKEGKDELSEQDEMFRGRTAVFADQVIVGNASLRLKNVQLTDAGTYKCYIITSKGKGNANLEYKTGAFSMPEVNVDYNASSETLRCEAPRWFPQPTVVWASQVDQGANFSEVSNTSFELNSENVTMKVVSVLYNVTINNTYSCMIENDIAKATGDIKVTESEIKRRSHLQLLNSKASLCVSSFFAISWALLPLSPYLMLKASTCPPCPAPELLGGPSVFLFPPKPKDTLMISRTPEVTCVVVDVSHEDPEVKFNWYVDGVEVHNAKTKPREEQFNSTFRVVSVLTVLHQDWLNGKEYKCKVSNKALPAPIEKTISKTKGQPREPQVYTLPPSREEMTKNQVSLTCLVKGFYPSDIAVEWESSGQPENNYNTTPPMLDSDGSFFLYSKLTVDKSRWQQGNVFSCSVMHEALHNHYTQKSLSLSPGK
Test: competition ELISA; row = unlabeled blocking MAb; competitor = biotinylated detecting MAb Q23.6

Prompt: What measured signal/noise ratio goes with Ovr110.Q12 (antibody, IgG1, V domains shown, Mouse hybridoma MAb; also called Q12.2; Ovr110.Q12.2) VH: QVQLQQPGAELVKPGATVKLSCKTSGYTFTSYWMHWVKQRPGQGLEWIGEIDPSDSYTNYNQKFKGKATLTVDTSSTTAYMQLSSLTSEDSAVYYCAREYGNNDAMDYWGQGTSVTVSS VL: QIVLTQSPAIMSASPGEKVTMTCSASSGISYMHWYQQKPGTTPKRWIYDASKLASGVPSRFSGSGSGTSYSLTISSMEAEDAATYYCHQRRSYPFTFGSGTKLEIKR ?
Response: 3.6

Prompt: And Ovr110.Q11 (antibody, V domains shown, Mouse hybridoma MAb; also called Q11.12.3; Ovr110.Q11.12.3) VH: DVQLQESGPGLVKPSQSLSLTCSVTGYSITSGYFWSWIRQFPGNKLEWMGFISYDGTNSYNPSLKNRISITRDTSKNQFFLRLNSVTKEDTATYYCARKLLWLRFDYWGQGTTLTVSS VL: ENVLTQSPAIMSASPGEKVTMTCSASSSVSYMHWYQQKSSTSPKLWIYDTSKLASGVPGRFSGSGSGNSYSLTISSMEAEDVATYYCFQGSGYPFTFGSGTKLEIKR ?
Response: 4.5

Prompt: And Ovr110.Q19 (antibody, IgG1, V domains shown, Mouse hybridoma MAb; also called Q19.6; Ovr110.Q19.6) VH: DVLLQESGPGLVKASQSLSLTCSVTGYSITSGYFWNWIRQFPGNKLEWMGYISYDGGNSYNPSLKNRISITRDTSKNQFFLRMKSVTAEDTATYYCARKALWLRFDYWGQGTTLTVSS VL: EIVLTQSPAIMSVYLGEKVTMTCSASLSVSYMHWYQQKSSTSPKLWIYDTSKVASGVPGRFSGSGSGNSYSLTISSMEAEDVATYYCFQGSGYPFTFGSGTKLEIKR ?
Response: 4.8

Prompt: And Ovr110.Q23 (antibody, IgG1, V domains shown, Mouse hybridoma MAb; also called Q23.6) VH: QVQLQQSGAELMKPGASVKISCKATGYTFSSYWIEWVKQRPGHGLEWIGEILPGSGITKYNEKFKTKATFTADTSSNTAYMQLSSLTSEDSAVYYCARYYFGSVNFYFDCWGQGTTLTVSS VL: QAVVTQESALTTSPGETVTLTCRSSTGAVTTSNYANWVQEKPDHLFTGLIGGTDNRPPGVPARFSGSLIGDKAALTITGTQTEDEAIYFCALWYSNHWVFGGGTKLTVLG ?
Response: 1

---
Prompt: What measured signal/noise ratio goes with Ovr110.Q27 (antibody, IgG1, V domains shown, Mouse hybridoma MAb; also called Q27.4; Q27.2) VH: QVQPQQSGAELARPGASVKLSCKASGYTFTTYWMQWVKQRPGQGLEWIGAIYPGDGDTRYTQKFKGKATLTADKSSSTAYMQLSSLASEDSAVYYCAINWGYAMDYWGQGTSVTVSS VL: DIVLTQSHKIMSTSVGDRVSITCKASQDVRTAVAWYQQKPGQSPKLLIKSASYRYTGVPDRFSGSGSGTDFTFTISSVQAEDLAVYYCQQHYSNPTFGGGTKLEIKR ?
Response: 1
